- EXPERIMENTAL_PROTOCOL: Plasma pharmacokinetics in mice
- Format: in vivo, C57BL/6 female mice
- CONDITION_SET: mouse, plasma, intravenous; 2 mg/kg i.v. bolus, C57BL/6 female mice; read-out: plasma concentration by 1 h after dosing (below limit of quantification)
- Procedure: The mean plasma concentration-time profiles for intravenous (i.v.) and per os (p.o.) administration in C57BL/6 female mice are shown in Fig. 6A. […] Blank and test compound-containing samples were thawed, vortexed to ensure complete mixing of the contents, and centrifuged at 4,000 rpm at 20°C for 10 min. […] The chromatograms were evaluated using Analyst (version 1.6.3) software.
QUANTITY_MEASURED: concentration at 1 h

[Q] Requested field: concentration at 1 h. Item: CO[C@@H]1[C@H](OC(=O)Nc2ccc(C(=O)O)cc2)CC[C@]2(CO2)[C@H]1[C@@]1(C)O[C@@H]1CC=C(C)C [Compound 9]
[A] < 5 ng/mL

###

- EXPERIMENTAL_PROTOCOL: pH 3 degradation test
- Format: physicochemical
- CONDITION_SET: pH 3.0 buffer; pH 3, 25°C; read-out: Mean ± SE half-life at pH 3 and 25°C (converted)
QUANTITY_MEASURED: half-life

[Q] Requested field: half-life. Item: CO[C@@H]1[C@H](OC(=O)/C=C/C=C/C=C/C=C/C(=O)O)CC[C@]2(CO2)[C@H]1[C@@]1(C)O[C@@H]1CC=C(C)C [Fumagillin, reference compound]
[A] 1.42 h

###

Measured Papp at 120 min, 10 µM, listed per entry for reference.
- EXPERIMENTAL_PROTOCOL: in vitro
- CONDITION_SET: human, Caco-2, pH 7.4, Mean ± SE Papp, apical to basal, Caco-2, 10 μM, 120 min
Number in ×10⁻⁶ cm/s, nothing else.

{"COMPOUND": "CO[C@@H]1[C@H](OC(=O)/C=C/C=C/C=C/C=C/C(=O)O)CC[C@]2(CO2)[C@H]1[C@@]1(C)O[C@@H]1CC=C(C)C [Fumagillin, reference compound]", "Papp at 120 min, 10 µM (×10⁻⁶ cm/s)": 23.7}

We now examine a further compound.
[Q] Requested field: Papp at 120 min, 10 µM. Item: CC(C)NCC(O)COc1cccc2ccccc12 (centres unmarked) [Propranolol, reference compound]
[A] 22.6

###

Measured efflux ratio at 120 min, 10 µM, listed per entry for reference.
- EXPERIMENTAL_PROTOCOL: in vitro
- CONDITION_SET: human, Caco-2, pH 7.4
I'd appreciate a reply containing only the number, no unit.

Answered examples (2):
{"MOLECULE": "CO[C@@H]1[C@H](OC(=O)/C=C/C=C/C=C/C=C/C(=O)O)CC[C@]2(CO2)[C@H]1[C@@]1(C)O[C@@H]1CC=C(C)C [Fumagillin, reference compound]", "OBSERVED_MEASUREMENT": 2.13}
{"MOLECULE": "CC(C)NCC(O)COc1cccc2ccccc12 (stereo not drawn) [Propranolol, reference compound]", "OBSERVED_MEASUREMENT": 0.36}

We now examine a further molecule.
[Q] Requested field: efflux ratio at 120 min, 10 µM. Item: COC1C(OC(=O)NC(=O)CN2CCOCC2)CCC2(CO2)C1C1(C)OC1CC=C(C)C (stereo not drawn)
[A] 1.95

###

- Tested on: G. lamblia GS trophozoites
- EXPERIMENTAL_PROTOCOL: Trophozoite growth inhibition, ATP content (ATPlite) assay
- Type: cell-based, Giardia lamblia
- CONDITION_SET: Giardia duodenalis; trophozoite growth, 72 h, ATP content; read-out: Mean [IC50 ± SE(IC50)] G. lamblia GS
Measured IC50, listed per entry for reference.
Number in nM, nothing else.

Answered examples (3):
{"MOLECULE": "Cc1ncc([N+](=O)[O-])n1CCO [Metronidazole, reference compound]", "UNIT_LABEL": "nM", "IC50": 12700}
{"MOLECULE": "COC1C(OC(=O)Nc2ccccc2)CCC2(CO2)C1C1(C)OC1CC=C(C)C (stereo not drawn)", "UNIT_LABEL": "nM", "IC50": 7}
{"MOLECULE": "COC1C(OC(=O)NC(=O)CN(C)C)CCC2(CO2)C1C1(C)OC1CC=C(C)C (stereo not drawn)", "UNIT_LABEL": "nM", "IC50": 2.4}

[Q] Requested field: IC50. Item: COC1C(OC(=O)NC(=O)CN2CCCCC2)CCC2(CO2)C1C1(C)OC1CC=C(C)C (stereo not drawn)
[A] 82.5

[Q] Here is the next molecule: CO[C@@H]1[C@H](OC(=O)Nc2ccc(C(=O)O)cc2)CC[C@]2(CO2)[C@H]1[C@@]1(C)O[C@@H]1CC=C(C)C
[A] 3.8

[Q] Here is the next molecule: CCOC(=O)c1ccc(NC(=O)OC2CCC3(CO3)C(C3(C)OC3CC=C(C)C)C2OC)cc1 (stereo not drawn)
[A] 27.2

[Q] Here is the next molecule: COC1C(OC(=O)N2CCN(c3ccccc3)CC2)CCC2(CO2)C1C1(C)OC1CC=C(C)C (stereo not drawn)
[A] 109

[Q] Here is the next molecule: COC1C(OC(=O)Nc2ccc(CC(=O)O)cc2)CCC2(CO2)C1C1(C)OC1CC=C(C)C (stereo not drawn)
[A] 63.2

###

Measured pIC50, listed per entry for reference.
- System: E. histolytica HM1:IMSS trophozoites
- EXPERIMENTAL_PROTOCOL: Trophozoite growth inhibition, ATP content (ATPlite) assay
- Format: cell-based
- CONDITION_SET: Entamoeba histolytica; trophozoite growth, 72 h, ATP content; read-out: Mean [IC50 ± SE(IC50)] E. histolytica HM1: IMSS
Scale: negative log10 of molar concentration, which is what pIC50 denotes.

Answered examples (2):
{"COMPOUND": "Cc1ncc([N+](=O)[O-])n1CCO [Metronidazole, reference compound]", "OBSERVED_MEASUREMENT": 6.50}
{"COMPOUND": "COC1C(OC(=O)NC(=O)CN(C)C)CCC2(CO2)C1C1(C)OC1CC=C(C)C (stereo not drawn)", "OBSERVED_MEASUREMENT": 8.33}

We now examine a further compound.
[Q] Requested field: pIC50. Item: COC1C(OC(=O)NC(=O)CN2CCN(CCO)CC2)CCC2(CO2)C1C1(C)OC1CC=C(C)C (stereo not drawn)
[A] 6.65

###

Measured pIC50, listed per entry for reference.
- Test system: E. histolytica HM1:IMSS trophozoites
- EXPERIMENTAL_PROTOCOL: Trophozoite growth inhibition, ATP content (ATPlite) assay
- Type: cell-based
- CONDITION_SET: Entamoeba histolytica; trophozoite growth, 72 h, ATP content; read-out: Mean [IC50 ± SE(IC50)] E. histolytica HM1: IMSS
Scale: negative log10 of molar concentration, which is what pIC50 denotes.

Answered examples (3):
{"COMPOUND": "COC1C(OC(=O)Nc2ccccc2)CCC2(CO2)C1C1(C)OC1CC=C(C)C (stereo not drawn) [Compound 7]", "OBSERVED_MEASUREMENT": 7.84}
{"COMPOUND": "COC1C(OC(=O)NCC(=O)O)CCC2(CO2)C1C1(C)OC1CC=C(C)C (stereo not drawn) [Compound 14]", "OBSERVED_MEASUREMENT": 4.95}
{"COMPOUND": "COC1C(OC(=O)NC(=O)CN2CCC(O)CC2)CCC2(CO2)C1C1(C)OC1CC=C(C)C (stereo not drawn) [Compound 4]", "OBSERVED_MEASUREMENT": 7.44}

[Q] Short answer please: pIC50, E. histolytica HM1:IMSS trophozoites, entry COC1C(OC(=O)N2CCC(O)CC2)CCC2(CO2)C1C1(C)OC1CC=C(C)C (stereo not drawn) [Compound 16]
[A] 8.54

[Q] Here is the next compound: COC1C(OC(=O)Nc2ccc(CC(=O)O)cc2)CCC2(CO2)C1C1(C)OC1CC=C(C)C (stereo not drawn) [Compound 12]
[A] 7.03

[Q] Here is the next compound: CCOC(=O)c1ccc(NC(=O)OC2CCC3(CO3)C(C3(C)OC3CC=C(C)C)C2OC)cc1 (stereo not drawn) [Compound 8]
[A] 7.27

[Q] Here is the next compound: COC1C(OC(=O)NC(=O)CN2CCCCC2)CCC2(CO2)C1C1(C)OC1CC=C(C)C (stereo not drawn) [Compound 2]
[A] 6.36

[Q] Here is the next compound: CCOC(=O)Cc1ccc(NC(=O)OC2CCC3(CO3)C(C3(C)OC3CC=C(C)C)C2OC)cc1 (stereo not drawn) [Compound 11]
[A] 7.37
